Where do these numbers come from? They come from the M2OR odorant receptor database.

- assayed-system: UniProt Q8VGT4
- Sequence (whole entry): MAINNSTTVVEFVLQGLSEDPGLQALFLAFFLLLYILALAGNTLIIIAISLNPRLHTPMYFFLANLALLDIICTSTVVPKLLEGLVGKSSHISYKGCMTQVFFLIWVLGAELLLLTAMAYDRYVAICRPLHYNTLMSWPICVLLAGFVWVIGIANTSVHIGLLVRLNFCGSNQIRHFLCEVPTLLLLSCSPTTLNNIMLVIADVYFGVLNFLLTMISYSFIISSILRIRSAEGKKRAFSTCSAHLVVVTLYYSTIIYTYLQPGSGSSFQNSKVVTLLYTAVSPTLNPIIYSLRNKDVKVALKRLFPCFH
- protocol-conditions: stereoisomer not certain
Classes used: active, inactive

molecule | assigned-category
CC(C)=CCCC(C)=CCO | inactive
CCOC(=O)C(C)C | inactive
O=C1CCOc2ccccc21 | inactive
CCCCCCCC(=O)[O-].[H+] | inactive
C=CCOC(=O)CCCCCC | inactive
C=C(C)C1CCC(C)C(=O)C1 (stereo not drawn) | inactive
CCCCCCO | inactive
CCC(=O)C(=O)CC | inactive
CCCCCC(=O)CC | inactive
CC12CCC(CC1=O)C2(C)C (stereo not drawn) | active
CCCCOC=O | inactive
c1ccccc1 | inactive
CCCCCCCCC(=O)O | inactive
CCCCCCOC(C)=O | inactive
CC(=O)OCc1ccccc1 | inactive
CCCCC(C)=O | inactive
CCCC(=O)C(C)=O | inactive
O=C1Cc2ccccc2O1 | inactive

----------
- assayed-system: UniProt Q8VGX5
- Sequence (whole entry): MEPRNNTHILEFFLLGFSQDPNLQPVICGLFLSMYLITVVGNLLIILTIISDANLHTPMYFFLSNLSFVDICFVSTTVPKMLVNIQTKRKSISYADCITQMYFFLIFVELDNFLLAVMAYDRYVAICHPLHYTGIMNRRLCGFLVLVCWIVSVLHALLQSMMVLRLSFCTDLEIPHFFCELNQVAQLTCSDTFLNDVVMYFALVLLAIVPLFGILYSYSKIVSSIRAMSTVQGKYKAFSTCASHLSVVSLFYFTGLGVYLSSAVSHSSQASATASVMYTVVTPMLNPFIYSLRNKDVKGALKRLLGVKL
- protocol-conditions: stereoisomer not certain
Outcome codes: active, inactive

molecule | assigned-category
CC(=O)OCC=C(C)C | active
CCC(C(=O)O)c1ccccc1 (stereo unspecified) | inactive
CC1(C)CC(=O)CC(=O)C1 | inactive
C=C1C2CCC(C2)C1(C)C (stereo unspecified) | inactive
CSSSC | inactive
CCCCCCCC(C)=O | inactive
Cc1c(C)c(C)c(C=O)c(C)c1C | inactive
Cc1ccccc1OC(=O)C(C)C | inactive
O=C(c1ccccc1)c1ccccc1 | inactive
CC(C)=CCCC(C)=CCO | active
CCCCCOC(=O)CC | inactive
C=C(C)C1CCC(C)C(O)C1 (stereo unspecified) | active
C=CC(=C)CCC=C(C)CCC=C(C)C | inactive
CCCCCC=CCCC=O | inactive
OCCc1ccccc1 | active
CC(=O)C=CC1=C(C)CCCC1(C)C | active

----------
- assayed-system: UniProt B2RVX8
- Sequence (B2RVX8 as listed by the source): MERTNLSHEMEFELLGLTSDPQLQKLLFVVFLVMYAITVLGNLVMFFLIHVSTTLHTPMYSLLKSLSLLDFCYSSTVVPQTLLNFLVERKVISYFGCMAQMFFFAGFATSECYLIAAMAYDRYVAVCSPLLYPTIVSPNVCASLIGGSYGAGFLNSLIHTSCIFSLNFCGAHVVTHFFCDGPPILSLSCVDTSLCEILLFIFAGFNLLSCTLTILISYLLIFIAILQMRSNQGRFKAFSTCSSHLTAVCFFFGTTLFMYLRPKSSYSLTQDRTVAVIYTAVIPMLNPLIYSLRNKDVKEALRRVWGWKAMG
- protocol-conditions: stereoisomer not certain
Outcome codes: yes (1) = active, no (0) = inactive

molecule | assigned-category
CCCCCCCCCC(=O)[O-].[H+] | no (0)
C=C(C)C1CCC(C)C(=O)C1 (centres undefined) | no (0)
CCCCCCCO | no (0)
CCCCC(=O)O | no (0)
CCCCCC=O | no (0)
CCCCCCOC(C)=O | no (0)
CCC(=O)C(=O)CC | no (0)
CCCCCCCCCS | no (0)
CC(C)=CCCC(C)=CCO | no (0)
C=CCOC(=O)CCCCCC | no (0)
CCCCCCCCC(=O)O | no (0)
CCCCOC=O | no (0)
CCCCCC1=C(C)CCC1=O | yes (1)
COc1cc(C(=O)O)ccc1O | no (0)
CCC(=O)O | no (0)
CCCCCC(=O)CC | no (0)
CCCCCCCCO | no (0)
CCCCCCCC(=O)[O-].[H+] | no (0)
O=C(c1ccccc1)c1ccccc1 | no (0)
